Target: human GABAA α5β2γ1 receptor (Homo sapiens (Human), UniProt P31644+Q8N1C3)
Assay: Radioligand binding assay, [3H]RO7239181 competition, γ1-containing GABAA subtypes
Conditions: HEK293F membranes, mean of two determinations
pKi: −log10 of the molar value.
Reported values of pKi for individual entries

| molecule | pKi |
| --- | --- |
| Cc1nnc2n1-c1ccc(C(F)F)c(Cl)c1C(c1c(F)cccc1F)=N[C@H]2C | 8.49 |
| C[C@@H]1N=C(c2ccccc2F)c2c(ccc(Br)c2Cl)-n2cnnc21 | 8.59 |
| C[C@@H]1N=C(c2c(F)cccc2F)c2c(ccc(Cl)c2Cl)-n2c(-c3ccncn3)nnc21 | 8.96 |
| C[C@@H]1N=C(c2ncccc2F)c2c(ccc(Cl)c2Cl)-n2c(-c3cccnn3)nnc21 | 8.25 |
| Cc1ccc(-c2nnc3n2-c2ccc(Cl)c(Cl)c2C(c2c(F)cccc2F)=N[C@H]3C)nn1 | 8.85 |
| Cc1nnc2n1-c1ccc(Br)c(Cl)c1C(c1c(F)cccc1F)=N[C@H]2CO | 9.00 |
| C[C@@H]1N=C(c2c(F)cccc2F)c2c(ccc(Cl)c2Br)-n2c(-c3ccn(C)n3)nnc21 | 8.37 |
| C[C@@H]1N=C(c2c(F)cccc2F)c2c(ccc(Cl)c2Cl)-n2c1n[nH]c2=O | 9.30 |
| COC[C@@H]1N=C(c2c(F)cccc2F)c2c(ccc(C(F)(F)F)c2Cl)-n2c(C)nnc21 | 7.70 |
| C[C@@H]1N=C(c2ncccc2F)c2c(ccc(Cl)c2Cl)-n2c(-c3ccncn3)nnc21 | 8.10 |
| OC1N=C(c2c(F)cccc2F)c2c(ccc(Br)c2Cl)-n2cnnc21 (centres unmarked) | 8.55 |
| OC1N=C(c2ccccc2F)c2c(ccc(Br)c2Cl)-n2c(-c3cccnn3)nnc21 (centres unmarked) | 8.08 |
| C[C@@H]1N=C(c2ncccc2F)c2c(ccc(Br)c2Cl)-n2c(C3CC3)nnc21 | 8.57 |
| Cc1nnc2n1-c1ccc(Cl)c(Br)c1C(c1c(F)cccc1F)=N[C@H]2C | 8.52 |
| Cc1nnc2n1-c1ccc(Br)c(Cl)c1C(c1c(F)cccc1F)=N[C@H]2C | 9.10 |
| Cc1nccc(-c2nnc3n2-c2ccc(Cl)c(Cl)c2C(c2c(F)cccc2F)=N[C@H]3C)n1 | 8.82 |
| Cc1cc(-c2nnc3n2-c2ccc(Cl)c(Cl)c2C(c2c(F)cccc2F)=N[C@H]3C)on1 | 8.68 |
| CCc1ccc2c(c1Cl)C(c1c(F)cccc1F)=N[C@@H](C)c1nnc(C)n1-2 | 8.43 |
| C[C@@H]1N=C(c2c(F)cccc2F)c2c(ccc(Cl)c2Br)-n2c(-c3ccncn3)nnc21 | 8.59 |
| Cc1nnc2n1-c1ccc(Br)c(Cl)c1C(c1ncccc1F)=N[C@H]2C | 8.48 |
| C[C@@H]1N=C(c2c(F)cccc2F)c2c(ccc(Cl)c2Cl)-n2c(-c3cnn(C)c3)nnc21 | 8.96 |
| C[C@@H]1N=C(c2ncccc2F)c2c(ccc(Cl)c2Cl)-n2c(C3CC3)nnc21 | 8.15 |
| Cc1nnc2n1-c1ccc(I)c(Cl)c1C(c1c(F)cccc1F)=N[C@H]2C | 9.10 |
| C[C@@H]1N=C(c2c(F)cccc2F)c2c(ccc(Cl)c2Br)-n2c(-c3cccnn3)nnc21 | 8.70 |
| C[C@@H]1N=C(c2c(F)cccc2F)c2c(ccc(Cl)c2Br)-n2c1n[nH]c2=O | 8.37 |
| C[C@@H]1N=C(c2c(F)cccc2F)c2c(ccc(C(F)(F)F)c2Cl)-n2c(CO)nnc21 | 8.27 |
| C[C@@H]1N=C(c2ncccc2F)c2c(ccc(Cl)c2Cl)-n2c(-c3cnn(C)c3)nnc21 | 8.49 |
| C[C@@H]1N=C(c2c(F)cccc2F)c2c(ccc(Cl)c2Cl)-n2c(-c3cccnn3)nnc21 | 9.10 |
| Cc1ccc(-c2nnc3n2-c2ccc(Cl)c(Br)c2C(c2c(F)cccc2F)=N[C@H]3C)nn1 | 8.44 |
| CC[C@@H]1N=C(c2c(F)cccc2F)c2c(ccc(Br)c2Cl)-n2c(C)nnc21 | 8.36 |
| C[C@@H]1N=C(c2c(F)cccc2F)c2c(ccc(C(F)(F)F)c2Cl)-n2cnnc21 | 8.52 |
| Cc1nnc2n1-c1ccc(C(F)(F)F)c(Cl)c1C(c1c(F)cccc1F)=N[C@H]2C | 8.74 |
